System: RS4;11 (BCL-2 dependent acute lymphoblastic leukemia cell line)
Assay: RS4;11 Cell Proliferation Assay
Format: cell-based
Conditions: Homo sapiens, RS4-11, RS4;11 cells, read-out: Cellular proliferation assay (IC50, nM) RS4
# IC50 annotations

compound: COc1nn(C)cc1CN1CCN(C2CC3(CCN(c4ccc(C(=O)NS(=O)(=O)c5ccc(NC[C@H]6CC[C@](C)(O)CC6)c([N+](=O)[O-])c5)c(Oc5cnc6[nH]ccc6c5)c4)CC3)C2)C(c2ccccc2C(C)C)C1 (some centres unmarked)
IC50: 0.43 nM
//
compound: CCOc1ccc(CN2CCN(C3CC4(CCN(c5ccc(C(=O)NS(=O)(=O)c6ccc(NC[C@H]7CC[C@](C)(O)CC7)c([N+](=O)[O-])c6)c(Oc6cnc7[nH]ccc7c6)c5)CC4)C3)C(c3ccccc3C(C)C)C2)cc1 (some centres unmarked)
IC50: 0.85 nM

* * *

Biological target: recombinant human Bcl-2-G101V protein (Homo sapiens (Human), UniProt P10415, G101V)
Experiment: Bcl-2-G101V TR-FRET Assay
Type: binding
Conditions: Bcl-2 G101V mutant, TR-FRET; read-out: Biochemical assay (IC50, nM) Bcl-2 G101V
# IC50 annotations

compound: COc1ccc(CN2CCN(C3CC4(CCN(c5ccc(C(=O)NS(=O)(=O)c6ccc(NC[C@H]7CC[C@](C)(O)CC7)c([N+](=O)[O-])c6)c(Oc6cnc7[nH]ccc7c6)c5)CC4)C3)C(c3ccccc3CC(C)C)C2)cc1 (stereo partly shown) [Example 35]
subjectOfTest: recombinant human Bcl-2-G101V protein (Homo sapiens (Human), UniProt P10415, G101V)
IC50: 163 nM

compound: CC(C)c1ccccc1C1CN(Cc2cccc3c2N(C)C(=O)CO3)CCN1C1CC2(CCN(c3ccc(C(=O)NS(=O)(=O)c4ccc(NC[C@H]5CC[C@](C)(O)CC5)c([N+](=O)[O-])c4)c(Oc4cnc5[nH]ccc5c4)c3)CC2)C1 (stereo partly shown) [Example 216]
subjectOfTest: recombinant human Bcl-2-G101V protein (Homo sapiens (Human), UniProt P10415, G101V)
IC50: 0.81 nM

compound: COc1cc(CN2CCN(C3CC4(CCN(c5ccc(C(=O)NS(=O)(=O)c6ccc(NC[C@H]7CC[C@](C)(O)CC7)c([N+](=O)[O-])c6)c(Oc6cnc7[nH]ccc7c6)c5)CC4)C3)[C@H](c3ccccc3C(C)C)C2)cc2c1OCCC2 [Example 302]
subjectOfTest: recombinant human Bcl-2-G101V protein (Homo sapiens (Human), UniProt P10415, G101V)
IC50: 0.2 nM

compound: COc1ccc(CN2CCN(C3CC4(C3)CN(c3ccc(C(=O)NS(=O)(=O)c5ccc(NC[C@H]6CC[C@](C)(O)CC6)c([N+](=O)[O-])c5)c(Oc5cnc6[nH]cc(F)c6c5)c3)C4)[C@H](c3ccccc3C(C)C)C2)cc1OC1CC1 [Example 364]
subjectOfTest: recombinant human Bcl-2-G101V protein (Homo sapiens (Human), UniProt P10415, G101V)
IC50: 0.39 nM

* * *

System: RS4;11 (BCL-2 dependent acute lymphoblastic leukemia cell line)
Test: RS4;11 Cell Proliferation Assay
Format: cell-based
Details: Homo sapiens, RS4-11, RS4;11 cells, read-out: Cellular proliferation assay (IC50, nM) RS4
# IC50 annotations

molecule: COc1ccc(CN(C)C2CCN(C3CC4(CCN(c5ccc(C(=O)NS(=O)(=O)c6ccc(NC[C@H]7CC[C@](C)(O)CC7)c([N+](=O)[O-])c6)c(Oc6cnc7[nH]ccc7c6)c5)CC4)C3)C(c3ccccc3C3CC3)C2)cc1 (some centres unmarked)
measureUnit: nM
IC50: 2.12
--
molecule: COc1cccc(CN2CCN(C3CC4(CCN(c5ccc(C(=O)NS(=O)(=O)c6ccc(NC[C@H]7CC[C@](C)(O)CC7)c([N+](=O)[O-])c6)c(Oc6cnc7[nH]ccc7c6)c5)CC4)C3)C(c3ccccc3C(C)C)C2)c1 (some centres unmarked)
measureUnit: nM
IC50: 0.5
